- System: SK-MEL-28 melanoma
- EXPERIMENTAL PROTOCOL: NCI tumour cell line growth inhibition, 48 h
RECORDED METRIC: TGI

MOLECULE | RECORDED METRIC | REPORTED RESULT
CN1C(=O)N/C(=C\c2ccc(S(=O)(=O)NN)cc2)C1=O | TGI | > 100 µM
C[N+](C)([O-])CCC=C1c2ccccc2CCc2ccccc21 | TGI | 98.7 µM
C[C@H]1c2cccc(O)c2C(O)=C2C(=O)[C@]3(O)C(O)=C(C(N)=O)C(=O)[C@@H](N(C)C)[C@@H]3[C@@H](O)[C@@H]21 | TGI | 16.4 µM
O=c1c2ccccc2[se]n1-c1cccnc1 | TGI | 81 µM
S=C(NCc1ccccc1)c1nc[nH]c1C(=S)NCc1ccccc1 | TGI | 26.9 µM
NC(CCCCP(=O)(O)O)C(=O)O (stereo unspecified) | TGI | > 100 µM
O=C(O)c1nc(-c2ccccc2)ncc1-c1nnnn1-c1ccccc1 | TGI | > 100 µM
CC(=O)OC1CCC2(C)C3CCC4(C)C(c5ccc(=O)oc5)CC5OC54C3CCC2(O)C1 (stereo unspecified) | TGI | 21.7 µM
CCCCCCCCCCCCCCCCCCNc1ccn(C2OC(COP(=O)(O)OCC3OC(n4cc(C)c(=O)[nH]c4=O)CC3O)C(O)C2O)c(=O)n1 (stereo unspecified) | TGI | 31.3 µM
CCn1c(-c2cc(OC)cc(OC)c2)nc2c1C(=O)c1ccccc1C2=O | TGI | > 100 µM
Clc1ccc2c(NCCCNc3nccc(Nc4ccc(Br)cc4)n3)ccnc2c1 | TGI | 3.15 µM
Cn1c(=O)c2c(nc(Nc3cc(=O)[nH]c(=O)[nH]3)n2Cc2ccccc2)n(C)c1=O | TGI | > 100 µM
CC(=O)Nc1cc(C(=O)Nc2cc(C(=O)N3CC(CCl)c4c3cc(N)c3ccccc43)nn2C)nn1C (stereo unspecified) | TGI | 0.154 µM
CC[N+](CC)(CCNCC(N)=O)CC(N)=O | TGI | > 10 µM
C=C(C=O)[C@@H]1C2OC(=O)C(=C)[C@@H]2CC(O)[C@@]1(C)CC (stereo partly specified) | TGI | 12.5 µM
O=[N+]([O-])c1ccc(C=C2C(Cl)=C(Cl)C(Cl)=C2Cl)cc1 | TGI | 74.4 µM
CCc1nc(N)nc(N)c1-c1ccc(Cl)c(Cl)c1 | TGI | > 100 µM
Cc1ccc(S(=O)(=O)NCC2CCCCC2=O)cc1 (stereo unspecified) | TGI | > 100 µM
CC(=O)OC1Oc2ccccc2-c2oc(=O)c(-c3cc(=O)oc4cc(O)ccc34)cc21 (stereo unspecified) | TGI | > 100 µM
S=C(c1c[nH]c2ccccc12)N1CCOCC1 | TGI | > 100 µM
COc1ccccc1C1C(C(=O)O)=C(CO)Oc2cc3c(cc21)OCO3 (stereo unspecified) | TGI | > 100 µM
